Data origin, for the record: ChEMBL document CHEMBL5030525

tested on: NCI-H1975; test: Antiproliferative activity against human NCI-H1975 cells assessed as inhibition of cell growth measured after 72 hrs by MTT assay; format: functional, cell-based; conditions: NCI-H1975, 72 h
experimental_readout: IC50

line_notation=FC(F)(F)c1ccc(CSc2nc(N3CCNCC3)cc(C(F)(F)F)n2)cc1 experimental_readout=IC50 result="6.21 µM"
line_notation=C=CC(=O)Nc1cccc(Nc2cc(C(F)(F)F)nc(SCC3CC3)n2)c1 experimental_readout=IC50 result="19.2 µM"
line_notation=FC(F)(F)c1ccc(CSc2nc(Nc3nnn[nH]3)cc(C(F)(F)F)n2)cc1 experimental_readout=IC50 result="> 50 µM"
line_notation=C=CC(=O)Nc1cccc(Nc2cc(C(F)(F)F)nc(SCc3ccccc3OC)n2)c1 experimental_readout=IC50 result="6.5 µM"
line_notation=C=CC(=O)Nc1cccc(Nc2cc(C(F)(F)F)nc(SCC3CCOCC3)n2)c1 experimental_readout=IC50 result="16.3 µM"
line_notation=FC(F)(F)c1ccc(CSc2nc(N3CCN(c4ccccn4)CC3)cc(C(F)(F)F)n2)cc1 experimental_readout=IC50 result="17.4 µM"
